Value source: ChEMBL document CHEMBL1141362

Test: Metabolic stability in human liver microsomes after 30 mins
Assay type: ADME, Microsome
Conditions: read-out: Stability

{"columns": ["Smiles input", "remaining at 0.5 h [%]"],
 "data": [
  ["O=C(c1ccc(Br)cc1NS(=O)(=O)c1sc(Cl)cc1Br)N1CCCCC1", 2],
  ["Cc1c(S(=O)(=O)Nc2cc(Br)ccc2C(=O)N2CCCCC2)cnn1-c1ccccc1", 85],
  ["O=C(c1ccc(Br)cc1NS(=O)(=O)c1ccc(-c2cc(C(F)(F)F)on2)s1)N1CCCCC1", 89],
  ["O=C(c1ccc(Br)cc1NS(=O)(=O)c1csc2ccccc12)N1CCCCC1", 23],
  ["COC(=O)c1csc(S(=O)(=O)Nc2cc(Br)ccc2C(=O)N2CCCCC2)c1OC", 0],
  ["COC(=O)c1cc(S(=O)(=O)Nc2cc(Br)ccc2C(=O)N2CCCCC2)oc1C", 10],
  ["COC(=O)c1c(C)oc(C)c1S(=O)(=O)Nc1cc(Br)ccc1C(=O)N1CCCCC1", 0],
  ["Cc1nnc(-c2cccc(S(=O)(=O)Nc3cc(Br)ccc3C(=O)N3CCCCC3)c2)o1", 0],
  ["COC(=O)c1sccc1S(=O)(=O)Nc1cc(Br)ccc1C(=O)N1CCCCC1", 3],
  ["O=C(NCc1ccc(S(=O)(=O)Nc2cc(Br)ccc2C(=O)N2CCCCC2)s1)c1ccccc1", 0],
  ["O=C(c1ccc(Br)cc1NS(=O)(=O)c1ccc(C(F)(F)F)cc1Cl)N1CCCCC1", 44],
  ["O=C(c1ccc(Br)cc1NS(=O)(=O)c1ccc2c(c1)OCCCO2)N1CCCCC1", 41]
]}
